test system: CLZ3 (HCA2 human fibroblast dual HR-NHEJ reporter); experiment: NHEJ repair efficiency (GFP+ cells) relative to control (log10 fold); higher = more non-homologous end joining; conditions: 5 µM; doxycycline 0.5 ug/mL;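 note: compound given one day ahead of doxycycline, which switches on I-SceI endonuclease to cut the chromosomally integrated reporter and create DSBs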
Assign yes (1) whenever NHEJ repair efficiency (log10) does not fall below 0.08; assign no (0) whenever it does.

- compound: "COc1c2c(cc3oc(C)cc(=O)c13)O[C@H](C(C)(C)O)C2"
  class label: "no (0)"

Q: Tell me whether NHEJ repair efficiency (log10) is at least 0.08 here: CC=C1[C@H](O[C@@H]2O[C@H](CO)[C@@H](O)[C@H](O)[C@H]2O)OC=C(C(=O)OC)[C@H]1CC(=O)OC[C@H]1O[C@@H](OCCc2ccc(O)cc2)[C@H](O)[C@@H](O)[C@@H]1O (stereo in doubt) [Specnuezhenide]
Result: no (0)

Q: # repeat for C[C@@]12C[C@@]3(O)O[C@@H](O1)[C@]1(COC(=O)c4ccc(O)cc4)[C@@H]3C[C@]12O[C@@H]1O[C@H](CO)[C@@H](O)[C@H](O)[C@H]1O
Result: no (0)

Q: Entry C/C=C(/C)C(=O)O[C@@H]1[C@H](OC(=O)CC(C)C)c2c(ccc3ccc(=O)oc23)OC1(C)C please
Result: no (0)

Q: Follow-up entry: C=C1CC[C@H]2C(=C)CC[C@H]3C(=C)C(=O)O[C@@H]3[C@@H]12 [Dehydrocostus Lactone]
Result: no (0)

Q: Please do the same for COc1ccc([C@@H]2CC(=O)c3c(O)cc(O[C@@H]4O[C@H](CO[C@@H]5O[C@@H](C)[C@H](O)[C@@H](O)[C@H]5O)[C@@H](O)[C@H](O)[C@H]4O)cc3O2)cc1O as well.
Result: yes (1)

Q: What do you get for COc1cc2ccc(=O)oc2c(O[C@@H]2O[C@H](CO)[C@@H](O)[C@H](O)[C@H]2O)c1O [Fraxin;Fraxoside; Paviin] ?
Result: no (0)
